Documented MIC across a set of molecules
Test system: Candida auris strains
Experiment: Candida auris antifungal susceptibility testing (CLSI M27-A3), 38 strains
Format: cell-based
Details: Candidozyma auris, 24 h, strain 18 VCPI 107/P/14; 24 h; read-out: MIC
Starred links: 1 amine or outer side, 2 acyl side, 3 side chain; linkers in the order of their positions; H or OH if unused. Positions of bridges follow the written chain, without caps; N, C: chain ends. Non-standard residues stand in square brackets, D forms with d. Residues, ends and D or L forms follow the SMILES beside them. *: point of attachment. Orn(4R-OH,5R-OCH2CH2NMe3+) = C[N+](C)(C)CCO[C@@H](N[*:3])[C@H](O)C[C@H](N[*:1])C(=O)[*:2]; hTyr(3S-OH,4S-OH,3'-OSO3H) = N[C@H](C(=O)O)[C@H](O)[C@@H](O)c1ccc(O)c(OS(=O)(=O)O)c1; pTerphenylCO(4''-OnC5H11) = CCCCCOc1ccc(-c2ccc(-c3ccc(C(=O)*)cc3)cc2)cc1; Orn(4R-OH,5R-OH) = O=C([C@H](C[C@@H](O)[C@@H](O)N[*:3])N[*:1])[*:2]; hTyr(3S-OH,4S-OH) = N[C@H](C(=O)O)[C@H](O)[C@@H](O)c1ccc(O)cc1; Pro(3S-OH,4S-Me) = C[C@H]1CN[C@H](C(=O)O)[C@H]1O; X1 = CCCCCOc1ccc(-c2cc(-c3ccc(C(=O)*)cc3)no2)cc1; Gln(3R-OH) = NC(=O)C[C@@H](O)[C@H](N)C(=O)O; Hyp = O=C(O)[C@@H]1C[C@@H](O)CN1
The response must be a number in µg/mL with no trailing unit.

Recorded results for 3 molecules are shown here.
OC(Cn1cncn1)(Cn1cncn1)c1ccc(F)cc1F | 64
CCCCCOc1ccc(-c2cc(-c3ccc(C(=O)N[C@H]4C[C@@H](O)[C@@H](O)NC(=O)[C@@H]5[C@@H](O)[C@@H](C)CN5C(=O)[C@H]([C@H](O)CC(N)=O)NC(=O)[C@H]([C@H](O)[C@@H](O)c5ccc(O)c(OS(=O)(=O)O)c5)NC(=O)[C@@H]5C[C@@H](O)CN5C(=O)[C@H]([C@@H](C)O)NC4=O)cc3)no2)cc1 [Micafungin, micafungin] (X1-[Orn(4R-OH,5R-OH)]T[Hyp][hTyr(3S-OH,4S-OH,3'-OSO3H)][Gln(3R-OH)][Pro(3S-OH,4S-Me)]; lactam 1-C) | 0.06
CC[C@H](C)C[C@H](C)CCCCCCCCC(=O)N[C@H]1C[C@@H](O)[C@@H](NCCN)NC(=O)[C@@H]2[C@@H](O)CCN2C(=O)[C@H]([C@H](O)CCN)NC(=O)[C@H]([C@H](O)[C@@H](O)c2ccc(O)cc2)NC(=O)[C@@H]2C[C@@H](O)CN2C(=O)[C@H]([C@@H](C)O)NC1=O | 0.25

Shifting focus to the molecule that follows.
Tell us which MIC value is on record for CCCCCOc1ccc(-c2ccc(-c3ccc(C(=O)N[C@H]4C[C@@H](O)[C@@H](OCC[N+](C)(C)C)NC(=O)[C@@H]5[C@@H](O)[C@@H](C)CN5C(=O)[C@H]([C@@H](C)O)NC(=O)[C@H]([C@H](O)[C@@H](O)c5ccc(O)cc5)NC(=O)[C@@H]5C[C@@H](O)CN5C(=O)[C@H]([C@@H](C)O)NC4=O)cc3)cc2)cc1 [CD101] ({pTerphenylCO(4''-OnC5H11)}-[Orn(4R-OH,5R-OCH2CH2NMe3+)]T[Hyp][hTyr(3S-OH,4S-OH)]T[Pro(3S-OH,4S-Me)]; lactam 1-C)
0.125
